From: patent US20260049088A1

// IC50 collected for hPARG (Homo sapiens, UniProt Q86W56)

For orientation, consider the following solved cases.
In [3]: df
Out[3]:
                                   compound                          study_system          result
0  CC(C)(O)C#Cc1ncnc2c1c1ccc(S(=O)(=O)NC3(C#N)CC3)cc1n2-c1nnc(C(F)F)s1 [Example 88]  hPARG (Homo sapiens, UniProt Q86W56)        ≤ 100 nM
1  CN(CC(=O)O)c1ncnc2c1c1ccc(S(=O)(=O)NC3(C#N)CC3)cc1n2-c1nnc(C(F)F)s1 [Example 19]  hPARG (Homo sapiens, UniProt Q86W56)        ≤ 100 nM
2  COCCSc1ncnc2c1c1ccc(S(=O)(=O)NC3(C#N)CC3)cc1n2-c1nnc(C(F)F)s1 [Example 84]  hPARG (Homo sapiens, UniProt Q86W56)  100 to 1000 nM

Identify the measured IC50 of CN1C[C@@H]2C[C@H]1CN2c1ncnc2c1c1ccc(S(=O)(=O)NC3(C#N)CC3)cc1n2-c1nnc(C(F)F)s1 [Example 31] for hPARG (Homo sapiens, UniProt Q86W56).
≤ 100 nM

Next entry: N#CC1(NS(=O)(=O)c2ccc3c4c(OCCn5cccn5)ncnc4n(-c4nnc(C(F)F)s4)c3c2)CC1 [Example 12]
≤ 100 nM

Queued: CN1C[C@H]2C[C@@H]1CN2c1ncnc2c1c1ccc(S(=O)(=O)NC3(C#N)CC3)cc1n2-c1nnc(C(F)F)s1 [Example 30]
≤ 100 nM

Cool, now CN(c1ncnc2c1c1ccc(S(=O)(=O)NC3(C#N)CC3)cc1n2-c1nnc(C(F)F)s1)[C@H]1CCOC1 [Example 70]
100 to 1000 nM
